- Test: Biodistribution in PC-3 tumor-bearing CB17-SCID mice
- Assay type: in vivo
- Experimental Setup: CB17-SCID, mouse, muscle, intravenous, 100 pmol, total radioactivity, 24 h after injection, 100 pmol, n = 4; read-out: Biodistribution, Muscle
Attribute Measured: tissue uptake at 24 h (%ID/g)
Expressed in %ID/g, but write only the number.

See these solved cases before continuing.
INSERT INTO measurements (molecule, measurement) VALUES
  ('CC(C)C[C@H](NC(=O)C[C@H](O)[C@H](CC(C)C)NC(=O)[C@H](Cc1c[nH]cn1)NC(=O)CNC(=O)[C@@H](NC(=O)[C@H](C)NC(=O)[C@](C)(Cc1c[nH]c2ccccc12)NC(=O)[C@H](CCC(N)=O)NC(=O)[C@@H](Cc1ccccc1)NC(=O)CN1CCC(NC(=O)CN2CCN(CC(=O)O)CCN(CC(=O)O)CCN(CC(=O)O)CC2)CC1)C(C)C)C(N)=O [^177Lu-AMTG, ^177Lu-α-Me-L-Trp^8-RM2, metal not drawn]', 0.005),
  ('CC(C)C[C@H](NC(=O)C[C@H](O)[C@H](CC(C)C)NC(=O)[C@H](Cc1c[nH]cn1)NC(=O)CNC(=O)[C@@H](NC(=O)[C@H](C)NC(=O)[C@H](Cc1c[nH]c2ccccc12)NC(=O)[C@H](CCC(N)=O)NC(=O)[C@@H](Cc1ccccc1)NC(=O)CN1CCC(NC(=O)CN2CCN(CC(=O)O)CCN(CC(=O)O)CCN(CC(=O)O)CC2)CC1)C(C)C)C(N)=O [^177Lu-RM2, metal not drawn, reference compound]', 0.011);

The molecule listed as CC(C)C[C@H](NC(=O)C[C@H](O)[C@H](CC(C)C)NC(=O)[C@H](Cc1c[nH]cn1)NC(=O)CNC(=O)[C@@H](NC(=O)[C@H](C)NC(=O)[C@](C)(Cc1c[nH]c2ccccc12)NC(=O)[C@H](CCC(N)=O)NC(=O)[C@@H](Cc1ccccc1)NC(=O)CN1CCC(NC(=O)CCC(C(=O)O)N2CCN(CC(=O)O)CCN(CC(=O)O)CCN(CC(=O)O)CC2)CC1)C(C)C)C(N)=O (stereo partly drawn) [^177Lu-AMTG2, ^177Lu-DOTAGA-α-Me-L-Trp^8-RM2, metal not drawn] has a reported tissue uptake at 24 h of 0.003

* * *

- Test: Biodistribution in PC-3 tumor-bearing CB17-SCID mice
- Assay type: in vivo
- Experimental Setup: CB17-SCID, mouse, spleen, intravenous, total radioactivity; 24 h after injection, 100 pmol, n = 4; read-out: Biodistribution, Spleen
Attribute Measured: tissue uptake at 24 h

The molecule listed as CC(C)CC(CC(C)C)NC(=O)[C@H](Cc1cnc[nH]1)NC(=O)CNC(=O)[C@@H](NC(=O)[C@H](C)NC(=O)[C@H](Cc1c[nH]c2ccccc12)NC(=O)[C@H](CCC(N)=O)NC(=O)[C@@H](Cc1ccccc1)NC(=O)COCC(=O)Nc1ccc(CNC(=O)CN2CCN(CC(=O)O)CCN(CC(=O)O)CCN(CC(=O)O)CC2)cc1)C(C)C [^177Lu-NeoBOMB1, metal not drawn, reference compound] has a reported tissue uptake at 24 h of 1.94 %ID/g

* * *

- Test: Biodistribution in PC-3 tumor-bearing CB17-SCID mice
- Assay type: in vivo
- Experimental Setup: CB17-SCID, mouse, stomach, intravenous, total radioactivity; 24 h after injection, 100 pmol, n = 4; read-out: Biodistribution, Stomach
- Method: A detailed description of tumor inoculation is provided in the supplemental materials. Approximately 2–5 MBq (100 pmol, 150 μL) of the ^177Lu-labeled GRPR ligands were injected into the tail vein of anesthetized (2% isoflurane) PC-3 tumor–bearing mice (biodistribution, n = 4; imaging, n = 1). For biodistribution studies, organs were removed, weighed, and measured in a γ-counter (Perkin Elmer) after euthanasia at 24 h after injection. […]
Attribute Measured: tissue uptake at 24 h
Record the result as a number with its unit.

The compound listed as CC(C)CC(CC(C)C)NC(=O)[C@H](Cc1cnc[nH]1)NC(=O)CNC(=O)[C@@H](NC(=O)[C@H](C)NC(=O)[C@H](Cc1c[nH]c2ccccc12)NC(=O)[C@H](CCC(N)=O)NC(=O)[C@@H](Cc1ccccc1)NC(=O)COCC(=O)Nc1ccc(CNC(=O)CN2CCN(CC(=O)O)CCN(CC(=O)O)CCN(CC(=O)O)CC2)cc1)C(C)C [^177Lu-NeoBOMB1, metal not drawn, reference compound] has a reported tissue uptake at 24 h of 1.29 %ID/g
